# target of assay: human plasma kallikrein (human, UniProt P03952 20-390; P03952 391-638)
# Sequence (P03952 20-390, chain 1 of 2): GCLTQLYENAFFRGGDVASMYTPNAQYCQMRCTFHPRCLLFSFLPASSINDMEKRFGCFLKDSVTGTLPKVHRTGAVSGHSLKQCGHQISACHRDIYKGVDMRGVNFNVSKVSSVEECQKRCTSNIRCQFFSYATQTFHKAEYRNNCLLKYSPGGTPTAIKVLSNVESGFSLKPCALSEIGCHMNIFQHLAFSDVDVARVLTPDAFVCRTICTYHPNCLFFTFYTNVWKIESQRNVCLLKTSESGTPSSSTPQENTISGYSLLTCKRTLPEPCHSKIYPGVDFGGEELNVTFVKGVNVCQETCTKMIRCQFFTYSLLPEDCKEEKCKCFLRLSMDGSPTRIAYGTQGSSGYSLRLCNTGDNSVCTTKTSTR
# Sequence (P03952 391-638, chain 2 of 2): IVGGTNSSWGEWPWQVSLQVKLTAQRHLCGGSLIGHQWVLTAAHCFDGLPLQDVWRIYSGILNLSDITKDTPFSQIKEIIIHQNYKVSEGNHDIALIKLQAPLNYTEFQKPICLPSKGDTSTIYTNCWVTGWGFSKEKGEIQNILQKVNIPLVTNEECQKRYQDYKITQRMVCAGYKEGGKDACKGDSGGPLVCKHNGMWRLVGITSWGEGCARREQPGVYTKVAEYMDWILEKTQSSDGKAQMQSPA
# assay text: cell-based or functional assay
measured property: % inhibition at 10 nM (%)
Use % as the unit, but write only the number.

Please review the following examples before continuing.
M209-D12 (Fab, V domains shown) VH: EVQLLESGGGLVQPGGSLRLSCAASGFTFSHYLMTWVRQAPSKGLEWVSYISPSGGHTIYADSVKGRFTISRDNSKNTLYLQMNSLRAEDTAVYYCATVARGIAARSRTSYFDQWGQGTLVTVSS VL: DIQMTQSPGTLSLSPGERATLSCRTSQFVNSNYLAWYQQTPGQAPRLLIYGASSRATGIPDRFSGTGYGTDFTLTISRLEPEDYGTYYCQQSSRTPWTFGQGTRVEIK | 85.4
M207-A04 (Fab, V domains shown) VH: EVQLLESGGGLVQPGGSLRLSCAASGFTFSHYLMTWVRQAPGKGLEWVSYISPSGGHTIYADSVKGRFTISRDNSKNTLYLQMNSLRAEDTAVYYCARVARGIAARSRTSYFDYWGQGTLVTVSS VL: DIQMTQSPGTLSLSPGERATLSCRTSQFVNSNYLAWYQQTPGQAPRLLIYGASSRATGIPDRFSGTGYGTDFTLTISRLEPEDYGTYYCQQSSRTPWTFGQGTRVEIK | 90.9
M209-H03 (Fab, V domains shown) VH: EVQLLESGGGLVQPGGSLRLSCAASGFTFSHYLMTWVRQAPSKGLEWVSYISPSGGHTIYADSVKGRFTISRDNSKNTLYLQMNSLRAEDTAVYYCARVAQGIAARSRTTQFDYWGQGTLVTVSS VL: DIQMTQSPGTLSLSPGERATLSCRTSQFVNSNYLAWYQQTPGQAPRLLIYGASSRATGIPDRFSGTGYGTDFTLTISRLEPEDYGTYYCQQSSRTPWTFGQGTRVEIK | 82.6

Q. Kindly indicate its recorded % inhibition at 10 nM. Item: M209-H07 (Fab, V domains shown) VH: EVQLLESGGGLVQPGGSLRLSCAASGFTFSHYLMTWVRQAPGKGLEWVSYISPSGGHTIYADSVKGRFTISRDNSKNTLYLQMNSLRAEDTAVYYCARVARGIAARQRTSYYDYWGQGTLVTVSS VL: DIQMTQSPGTLSLSPGERATLSCRTSQFVNSNYLAWYQQTPGQAPRLLIYGADDRATGIPDRFSGTGYGTDFTLTISRLEPEDYGTYYCQQSSRTPWTFGQGTRVEIK
A. 76.1

Q. Kindly indicate its recorded % inhibition at 10 nM. Item: M209-D02 (Fab, V domains shown) VH: EVQLLESGGGLVQPGGSLRLSCAASGFTFSHYLMTWVRQAPGKGLEWVSYISPSGGHTIYADSVKGRFTISRDNSKNTLYLQMNSLRAEDTAVYYCARVARGITARSRTSYFDDWGQGTLVTVSS VL: DIQMTQSPGTLSLSPGERATLSCRTSQFVNSNYLAWYQQTPSQAPRLLIYGASSRATGIPDRFSGTGYGTDFTLTISRLEPEDYGTYYCQQSSRTPWTFGQGTRVEIK
A. 74.7

Q. Kindly indicate its recorded % inhibition at 10 nM. Item: M209-B11 (Fab, V domains shown) VH: EVQLLESGGGLVQPGGSLRLSCAASGFTFSHYLMTWVRQAPGKGLEWVSYISPSGGHTIYADSVKGRFTISRDNSKNTLYLQMNSLRAEDTAVYYCARVARGIAARSRTSYIDQWGQGTLVTVSS VL: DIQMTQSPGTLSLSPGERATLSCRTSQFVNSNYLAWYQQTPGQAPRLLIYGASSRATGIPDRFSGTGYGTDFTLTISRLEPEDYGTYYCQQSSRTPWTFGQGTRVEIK
A. 87.3

src = patent US20100183625A1
